# System: TO-N3 (biotin conjugate)
# test name: pull-down binding Z-score (relative to library population); higher = stronger binding
# run parameters: RNA library: Library-2
Lab note: anything with pull-down binding Z-score at or over -0.1 counts as T; the rest go in F.

Example results:
CAGCCCUGCACUGAAC [hsa-mir-614]
T
UAGAUGAAUAAAUGAAUGACUCAUCA [hsa-mir-545]
F
GCCAGUGUGUAAAAUGAGAACUGAUA [hsa-mir-3074]
T

Request: Record UGCAUUUCUUACCUAGAGUUUUUAGUGCA [DMSMaPseq_invitro_SARS-CoV-2_Motif_163] ; criterion: pull-down binding Z-score no lower than -0.1. Met?
Result: F

Request: Record CUUAGCUGUCUUUGAUAAAAAUCUCUAUGACAAACUUGUUUCAAGCUUUUUGGAAAUGAAGAGUGAAAAGCAAGUUGAACAAAAGAUCGCUGAG [SHAPE_invivo_SARS-CoV-2_Motif_73] ; criterion: pull-down binding Z-score no lower than -0.1. Met?
Result: T

Request: Record AAUUUUGAUGAGUAUCAUAGGAGAAAAAUU [hsa-mir-363] ; criterion: pull-down binding Z-score no lower than -0.1. Met?
Result: F

Request: Record GGGGUGUACAUCAAUACUGCCUU [IAV_invivo_PA_3_Motif_19+IAV_invivo_PA_3_Motif_19] ; criterion: pull-down binding Z-score no lower than -0.1. Met?
Result: T

Request: Record UUGAACUUCAUUUCUCAUGCUCA [hsa-mir-6870] ; criterion: pull-down binding Z-score no lower than -0.1. Met?
Result: F

Request: Record CAGACAAUAUAGCUGAGUUUGUCUG [hsa-mir-215] ; criterion: pull-down binding Z-score no lower than -0.1. Met?
Result: F

* * *

# Tested on: TO-N3 (biotin conjugate)
# test name: pull-down binding Z-score (relative to library population); higher = stronger binding
# run parameters: RNA library: Library-2
pull-down binding Z-score values, listed per item

Examples with their reported pull-down binding Z-score follow.
CCAAAGAAACUUUUUUGG [hsa-mir-6079]
-0.761
UUGGCGUUAAGAUUCUAAAAUUAUCUCCAG [hsa-mir-16-1]
-0.952

Request: Give its pull-down binding Z-score value. Item: AUGUUUGUCAAACAUAAGCAU [DMSMaPseq_invitro_SARS-CoV-2_Motif_200]
Result: -0.873

Request: Give its pull-down binding Z-score value. Item: GAUUGGUCUGUGGUCCUCUC [hsa-mir-3615]
Result: -0.565

Request: Give its pull-down binding Z-score value. Item: UGACAUGACUCUUGAGGAAAUGUCA [IAV_invivo_NS1_NEP_8_Motif_7+IAV_invivo_NS1_NEP_8_Motif_7]
Result: -0.87

* * *

# System: TO-N3 (biotin conjugate)
# test name: pull-down binding Z-score (relative to library population); higher = stronger binding
# run parameters: RNA library: Library-2
value type: pull-down binding Z-score
Quick one: just the number, no unit, thanks!

GAACUCUACUAAUGUCACUAUUGCAACCUACUGUACUGGUUCUAUACCUUGUAGUGUUUGUCUUAGUGGUUUAGAUUC [DMSMaPseq_invitro_SARS-CoV-2_Motif_135]
-0.105
CACGGUGUCUGCGGGAGGAGACCAUG [hsa-mir-4757]
0.828
CAGACUUUGUGAAUGAGUUUUACGCAUAUUUGCGUAAACAUUUCUCAAUGAUGAUACUCUCUG
-0.747
UAUAACUUGAAGAAUUCAAAUAGUCAUG [hsa-mir-3146]
-1.06
UAUAGUGUGUUUGAUUUGCACUGUA [hsa-mir-4703]
-0.424
UGCAUAAAUGAAGCUGAAUGA [hsa-mir-6134]
-0.0557
UGGUUAGCUUUUUUUUUUUUUUGAGAUGGAGUCUGGCUC [hsa-mir-8086]
-0.772

We next turn to a different sequence, shown below.
Request: Give its pull-down binding Z-score value. Item: UAGAGAAAACAACAGAGUUGUUAUUUCUAGUGAUGUUCUUGUUAACAACUAAACGAACAAUGUUUGUUUUUCUUGUUUUAUUGCCACUAGUCUCUA [SHAPE_invitro_SARS-CoV-2_Multi_58_ComplexLevel_1]
Result: -0.976

* * *

# Test system: TO-N3-2 (biotin conjugate)
# test name: pull-down binding Z-score (relative to library population); higher = stronger binding
# run parameters: RNA library: Library-2
value type: pull-down binding Z-score
Quick one: just the number, no unit, thanks!

CCGUAUAUAUAUAUAUAUAUAUAUAGAUAUCUCCAUAUAUAUGG [hsa-mir-620]
-0.872
GGACGUCACCACCAUGGCC [hsa-mir-650]
0.358
AGUGGAAAAAGUUCUUUUCUUCCUCU [hsa-mir-3192]
-0.263
UGUAUGAAAAUGCCUUUUUACCUUUUGCUAUGGGUAUUAUUGCUAUGUCUGCUUUUGCAAUGAUGUUUGUCAAACAUAAGCAUGCA
-0.447
GUUGUUGUCUUACUGCGCUCAACAAC [hsa-mir-7-2]
-0.241

Request: Give its pull-down binding Z-score value. Item: CACGAGAUUGGGUUGUGCAGAGGCUGACACUUG [hsa-mir-5004]
Result: 0.63

Request: Give its pull-down binding Z-score value. Item: CCAAUGGUAUCCAGUGAUUCGUUGA [hsa-mir-4709]
Result: 0.186

Request: Give its pull-down binding Z-score value. Item: UGAGUACUGUAGGCACGGCACUUGUGAAAGAUCAGAAGCUGGUGUUUGUGUAUCUACUAGUGGUAGAUGGGUACUUA [DMSMaPseq_invitro_SARS-CoV-2_Multi_29_ComplexLevel_1]
Result: 0.628

Request: Give its pull-down binding Z-score value. Item: GUGGCUUCAACCAAGUUCAAAGUCAC [hsa-mir-3186]
Result: -0.383

* * *

# Tested on: TO-3-N3-2 (biotin conjugate)
# test name: pull-down binding Z-score (relative to library population); higher = stronger binding
# run parameters: RNA library: Library-2
Lab note: anything with pull-down binding Z-score at or over 0.2 counts as Yes; the rest go in No.

Example results:
GUGGUGGGCACUGCUGGGGUGGGCACAGCAGCCAUGCAGAGCGGGCAUUUGACCCCGUGCCACCCUUUUCCCCAG [hsa-mir-1227]
Yes
GUUGUUGUGAGCAAUAGUAAGGAAGCAAU [hsa-mir-34a]
Yes
UUGUGAUGUUUACCGUUUAAAUCCACGG [hsa-mir-125b-1]
No

Request: Record UUGAUUCAGUAAAACAUUCAA [hsa-mir-891b] ; criterion: pull-down binding Z-score no lower than 0.2. Met?
Result: No

Request: Record UACCAGCUGUACUCAACUCAAUUGAGUACAGACACUGGUG [DMSMaPseq_invitro_SARS-CoV-2_Motif_468] ; criterion: pull-down binding Z-score no lower than 0.2. Met?
Result: No

Request: Record GGAGCUCAGCACCUGCCUGCCACCCACGCAGACCAGCCCCUGCUCUGUUCCCACAG [hsa-mir-4648] ; criterion: pull-down binding Z-score no lower than 0.2. Met?
Result: Yes

* * *

pull-down binding Z-score values, listed per item
# Tested on: TO-3-N3-2 (biotin conjugate)
# test name: pull-down binding Z-score (relative to library population); higher = stronger binding
# run parameters: RNA library: Library-2
Quick one: just the number, no unit, thanks!

Examples with their reported pull-down binding Z-score follow.
UUGAGGGACAUGGUUAAUGGAAUUGUCUCA [hsa-mir-342]
0.0248
CCAAGUCUGACCACCUGAGGAAUGCCUGG [hsa-mir-1269a]
-0.335
CCCCGCGCGCGGACAGACACACGGACAAGUCCCGCCAGGGG [hsa-mir-4492]
-0.38
ACCUAACACACUGCCUUUUAUGUGGUAGGU [hsa-mir-5094]
-0.66
AACACCCAUCCCAGGAUUGCUGAUGGGUGUU [hsa-mir-5705]
-0.428
UUAAAAUAUGACUUCACGGAAGAGAGGUUAAAACUCUUUGACCGUUAUUUUAA [DMSMaPseq_invitro_SARS-CoV-2_Motif_258]
0.159
GGGCUCAGAAUAUGACUAUGUCAUAUUCACUCAAACCACUGAAACAGCUC [SHAPE_invitro_SARS-CoV-2_Motif_328]
0.0239
UGGUACUAUCUAUACAGAACUGGAACCA [SHAPE_invitro_SARS-CoV-2_Motif_233]
-0.345
AUGAUGUUUCUUUUUUAGCACAU
-0.427

We next turn to a different sequence, shown below.
Request: Give its pull-down binding Z-score value. Item: GGGAGUGGUUCCAUCACGCCUCCUCAC [hsa-mir-483]
Result: -0.147

* * *

# System: TO-3-N3-2 (biotin conjugate)
# test name: pull-down binding Z-score (relative to library population); higher = stronger binding
# run parameters: RNA library: Library-2
pull-down binding Z-score values, listed per item
Quick one: just the number, no unit, thanks!

Examples with their reported pull-down binding Z-score follow.
UCUCCUCAUUUACUGUGAAUGUGAGGGGA [IAV_invivo_PB2_1_Motif_31+IAV_invivo_PB2_1_Motif_31]
-0.219
UGGAGGCUGACCUCUUACUUUCGGUCGGUCUUCUU [hsa-mir-4258]
-0.43
CUUCUUGAAAUACUCCAAAAAGAGAAAGUCAACAUCAAUAUUGUUGGUGACUUUAAACUUAAUGAAG
-0.0464

Request: Give its pull-down binding Z-score value. Item: ACGAUAUAUAUACUGCCCUGCUUUUAUACAUACAUACAUACAUACCUAUAUCGU [hsa-mir-4536-1]
Result: -0.00614
